Attribution: patent US20100029657A1

Target: Flag/GST-tagged recombinant human B-Raf (Homo sapiens, UniProt P15056)
Construct: Flag; GST; made in house; host or cells: Sf9 insect cells (B-Raf); E. coli (MEK1-GST)
Sequence (P15056 whole entry): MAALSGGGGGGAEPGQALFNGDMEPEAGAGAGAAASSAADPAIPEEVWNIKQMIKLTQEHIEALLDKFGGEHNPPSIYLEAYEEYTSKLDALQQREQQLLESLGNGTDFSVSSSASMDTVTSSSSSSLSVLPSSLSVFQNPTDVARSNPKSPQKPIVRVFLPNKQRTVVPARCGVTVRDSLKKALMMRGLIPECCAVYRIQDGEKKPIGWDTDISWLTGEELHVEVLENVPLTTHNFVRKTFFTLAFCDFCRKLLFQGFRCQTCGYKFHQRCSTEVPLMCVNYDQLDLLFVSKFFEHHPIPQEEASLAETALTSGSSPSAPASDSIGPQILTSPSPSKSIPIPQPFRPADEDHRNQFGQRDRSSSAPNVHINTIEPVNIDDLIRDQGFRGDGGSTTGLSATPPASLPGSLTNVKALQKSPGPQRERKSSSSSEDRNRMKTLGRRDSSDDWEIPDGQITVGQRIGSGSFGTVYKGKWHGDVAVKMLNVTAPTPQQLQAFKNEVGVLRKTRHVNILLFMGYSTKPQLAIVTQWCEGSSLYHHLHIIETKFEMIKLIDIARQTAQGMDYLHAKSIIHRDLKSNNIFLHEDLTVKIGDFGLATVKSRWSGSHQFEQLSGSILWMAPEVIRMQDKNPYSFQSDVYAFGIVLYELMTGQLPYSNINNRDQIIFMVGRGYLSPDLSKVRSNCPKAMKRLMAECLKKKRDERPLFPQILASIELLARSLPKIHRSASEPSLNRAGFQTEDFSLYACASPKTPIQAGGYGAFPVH
Assay: B-Raf kinase assay (phosphorylation of GST-MEK1, phospho-MEK1 antibody/Europium detection)
Type: biochemical
Conditions: B-Raf IC50 Data for compounds of Formula A; read-out: Mean IC50
measured.attribute: IC50

[[record]]
compound = "COc1cccc(-c2c(-c3ccncc3)nn3c(C4CC5CCC(C4)N5)ccnc23)c1 (stereo not drawn) [Example 19]"
value_reported = "71 nM"

[[record]]
compound = "CN1C[C@@H]2C[C@H]1CN2c1ccc(-c2ccnc3c(-c4cccc(C(N)=O)c4)c(-c4ccncc4)nn23)cn1 [Example 43]"
value_reported = "134 nM"

[[record]]
compound = "Cc1cc(N2C[C@@H]3C[C@H]2CN3C)ccc1-c1ccnc2c(-c3ccc(F)c4[nH]ncc34)c(-c3ccncc3)nn12 [Example 136]"
value_reported = "< 0.3 nM"

[[record]]
compound = "CC(C)(C)OC(=O)N1C[C@@H]2C[C@H]1CN2Cc1cc(-c2ccnc3c(-c4cccc5[nH]ncc45)c(-c4ccncc4)nn23)co1 [Example 194]"
value_reported = "9.1 nM"

[[record]]
compound = "COc1cc(-c2c(-c3ccncc3)nn3c(-c4ccc(F)cc4N4C[C@@H]5C[C@H]4CN5C(=O)OC(C)(C)C)ccnc23)ccc1Cl [Example 48]"
value_reported = "> 1000 nM"

[[record]]
compound = "Fc1ccc(-c2c(-c3ccncc3)nn3c2nccc3[C@H]2CC[C@H](N3C[C@@H]4C[C@H]3CN4)CC2)c2cn[nH]c12 [Example 183]"
value_reported = "< 0.3 nM"

[[record]]
compound = "CN1C[C@@H]2C[C@H]1CN2c1ccc(-c2ccnc3c(-c4cccc5[nH]ncc45)c(-c4ccncc4)nn23)c(Cl)c1 [Example 62]"
value_reported = "< 0.3 nM"

[[record]]
compound = "CN1C[C@@H]2C[C@H]1CN2c1ccc(-c2ccnc3c(-c4ccc(Cl)c5[nH]ncc45)c(-c4ccncc4)nn23)cc1 [Example 141]"
value_reported = "2.3 nM"

[[record]]
compound = "CC(=O)N1C2CCC1CC(c1ccnc3c(-c4cccc5[nH]ncc45)c(-c4ccncc4)nn13)C2 (stereo not drawn) [Example 119]"
value_reported = "9.1 nM"

[[record]]
compound = "c1cc(-c2c(-c3ccncc3)nn3c(-c4ccc(CN5C[C@@H]6C[C@H]5CO6)s4)ccnc23)c2cn[nH]c2c1 [Example 197]"
value_reported = "5.7 nM"

[[record]]
compound = "CN(C)CC(=O)N1C2CCC1CC(c1ccnc3c(-c4cccc5[nH]ncc45)c(-c4ccncc4)nn13)C2 (stereo not drawn) [Example 116]"
value_reported = "61.8 nM"

[[record]]
compound = "Oc1cccc(-c2c(-c3ccncc3)nn3c(-c4ccc(N5C[C@@H]6C[C@H]5CN6)cc4F)ccnc23)c1 [Example 133]"
value_reported = "< 0.3 nM"

[[record]]
compound = "CCN1C[C@@H]2C[C@H]1CN2c1cc(F)c(-c2ccnc3c(-c4cccc5[nH]ncc45)c(-c4ccncc4)nn23)c(F)c1 [Example 167]"
value_reported = "< 0.3 nM"

[[record]]
compound = "CCOC(=O)N1C2CCC1CC(c1ccnc3c(-c4cccc(O)c4)c(-c4ccncc4)nn13)C2 (stereo not drawn) [Example 8]"
value_reported = "1 nM"

[[record]]
compound = "Fc1ccc(-c2c(-c3ccncc3)nn3c(C4CC5CCC(C4)N5)ccnc23)c2cn[nH]c12 (stereo not drawn) [Example 137]"
value_reported = "3.8 nM"

[[record]]
compound = "CN1C[C@@H]2C[C@H]1CN2c1ccc(-c2ccnc3c(-c4cccc5[nH]ncc45)c(-c4ccncc4)nn23)c(Cl)c1 [Example 98]"
value_reported = "< 0.3 nM"

[[record]]
compound = "CN1C[C@@H]2C[C@H]1CN2c1cc(F)c(-c2ccnc3c(-c4cccc5[nH]ncc45)c(-c4ccncc4)nn23)cc1F [Example 166]"
value_reported = "0.4 nM"

[[record]]
compound = "CCN1C2CCC1CC(c1ccnc3c(-c4ccnc(OC)c4)c(-c4ccncc4)nn13)C2 (stereo not drawn) [Example 20]"
value_reported = "835 nM"

[[record]]
compound = "CN1C[C@@H]2C[C@H]1CN2c1ccc(-c2ccnc3c(-c4cccc5[nH]ncc45)c(-c4ccncc4)nn23)c(F)c1 [Example 53]"
value_reported = "< 0.3 nM"

[[record]]
compound = "C[N+]1([O-])C[C@@H]2C[C@H]1CN2c1cc(F)c(-c2ccnc3c(-c4cccc5[nH]ncc45)c(-c4ccncc4)nn23)c(F)c1 (stereo partly drawn) [Example 192]"
value_reported = "0.4 nM"

[[record]]
compound = "c1cc(-c2c(-c3ccncc3)nn3c(-c4ccc(N5C[C@@H]6C[C@H]5CN6)c5ccccc45)ccnc23)c2cn[nH]c2c1 [Example 158]"
value_reported = "20.9 nM"

[[record]]
compound = "c1cc(-c2c(-c3ccncc3)nn3c2nccc3[C@H]2CC[C@H](N3C4CCC3COC4)CC2)c2cn[nH]c2c1 (relative stereo) [Example 151]"
value_reported = "6.4 nM"

[[record]]
compound = "COc1cccc(-c2c(-c3ccncc3)nn3c(-c4ccc(N5C[C@@H]6C[C@H]5CN6)cc4F)ccnc23)c1 [Example 132]"
value_reported = "0.4 nM"

[[record]]
compound = "CN1C[C@@H]2C[C@H]1CN2c1cc(F)c(-c2ccnc3c(-c4cccc5[nH]ncc45)c(-c4ccncc4)nn23)c(F)c1 [Example 101]"
value_reported = "< 0.1 nM"

[[record]]
compound = "NC(=O)N1C2CCC1CC(c1ccnc3c(-c4cccc5[nH]ncc45)c(-c4ccncc4)nn13)C2 (stereo not drawn) [Example 115]"
value_reported = "9.1 nM"

[[record]]
compound = "CC(=O)CN1C2CCC1CC(c1ccnc3c(-c4cccc5[nH]ncc45)c(-c4ccncc4)nn13)C2 (stereo not drawn) [Example 130]"
value_reported = "75.9 nM"

[[record]]
compound = "Oc1cc(-c2c(-c3ccncc3)nn3c(C4CC5CCC(C4)N5)ccnc23)ccc1Cl (stereo not drawn) [Example 12]"
value_reported = "0.4 nM"


====

Molecular target: Flag/GST-tagged recombinant human B-Raf (Homo sapiens, UniProt P15056)
Construct: Flag; GST; made in house; host or cells: Sf9 insect cells (B-Raf); E. coli (MEK1-GST)
Assay: B-Raf kinase assay (phosphorylation of GST-MEK1, phospho-MEK1 antibody/Europium detection)
Assay type: biochemical
Settings: B-Raf IC50 Data for compounds of Formula A; read-out: Mean IC50
pIC50: −log10 of the molar value.
measured.attribute: pIC50

[[record]]
compound = "CN1C[C@@H]2C[C@H]1CN2c1ccc(-c2ccnc3c(-c4ccc(Cl)c5[nH]ncc45)c(-c4ccncc4)nn23)cn1 [Example 41]"
qualifying_sign = ">"
value_reported = 9.52

[[record]]
compound = "c1cc(-c2c(-c3ccncc3)nn3c2nccc3[C@H]2CC[C@H](N3C[C@@H]4C[C@H]3CN4)CC2)c2cn[nH]c2c1 [Example 156]"
qualifying_sign = "="
value_reported = 9.22

[[record]]
compound = "CN1C[C@@H]2C[C@H]1CN2c1ccc(-c2ccnc3c(-c4cccc5[nH]ncc45)c(-c4ccncc4)nn23)cc1C(F)(F)F [Example 159]"
qualifying_sign = "="
value_reported = 8.70

[[record]]
compound = "Cc1cc(N2C[C@@H]3C[C@H]2CN3C)ccc1-c1ccnc2c(-c3cccc4[nH]ncc34)c(-c3ccncc3)nn12 [Example 45]"
qualifying_sign = ">"
value_reported = 9.52

[[record]]
compound = "CN1C[C@@H]2C[C@H]1CN2c1c(F)cc(-c2ccnc3c(-c4cccc5[nH]ncc45)c(-c4ccncc4)nn23)cc1F [Example 164]"
qualifying_sign = "="
value_reported = 8.02

[[record]]
compound = "Cc1cc(N2C[C@@H]3C[C@H]2CN3)ccc1-c1ccnc2c(-c3cccc4[nH]ncc34)c(-c3ccncc3)nn12 [Example 44]"
qualifying_sign = "="
value_reported = 9.22

[[record]]
compound = "CCOC(=O)N1C2CCC1CC(c1ccnc3c(-c4ccc(C)c5[nH]ncc45)c(-c4ccncc4)nn13)C2 (stereo not shown) [Example 78]"
qualifying_sign = "="
value_reported = 9.15


====

pIC50 reference
Target: Flag/GST-tagged recombinant human B-Raf (Homo sapiens, UniProt P15056)
Construct: Flag; GST; made in house; host or cells: Sf9 insect cells (B-Raf); E. coli (MEK1-GST)
Test: B-Raf kinase assay (phosphorylation of GST-MEK1, phospho-MEK1 antibody/Europium detection)
Assay type: biochemical
Conditions: B-Raf IC50 Data for compounds of Formula A; read-out: Mean IC50
pIC50: −log10 of the molar value.
measured.attribute: pIC50

[[record]]
compound = "C[N+]1([O-])C[C@@H]2C[C@H]1CN2c1ccc(-c2ccnc3c(-c4cccc5[nH]ncc45)c(-c4ccncc4)nn23)c(F)c1 (some centres unmarked)"
measured_attribute = "pIC50"
qualifying_sign = "="
value_reported = 9.23

[[record]]
compound = "Fc1ccc(-c2c(-c3ccncc3)nn3c(-c4ccc(N5C[C@@H]6C[C@H]5CN6)cc4)ccnc23)c2cn[nH]c12"
measured_attribute = "pIC50"
qualifying_sign = ">"
value_reported = 9.52

[[record]]
compound = "c1cc(-c2c(-c3ccncc3)nn3c(-c4ccc(N5CC6CCC(C5)O6)nc4)ccnc23)c2cn[nH]c2c1"
measured_attribute = "pIC50"
qualifying_sign = "="
value_reported = 8.24

[[record]]
compound = "CCOC(=O)N1C2CCC1CC(c1ccnc3c(-c4cccc(NS(C)(=O)=O)c4)c(-c4ccncc4)nn13)C2 (centres unmarked)"
measured_attribute = "pIC50"
qualifying_sign = "="
value_reported = 6.48

[[record]]
compound = "CCOC(=O)N1[C@@H]2CC[C@H]1C[C@@H](c1c(C)cnc3c(-c4cccc5[nH]ncc45)c(-c4ccncc4)nn13)C2"
measured_attribute = "pIC50"
qualifying_sign = "="
value_reported = 8.26

[[record]]
compound = "CCN1C2CCC1CC(c1ccnc3c(-c4ccc(NC=O)c(O)c4)c(-c4ccncc4)nn13)C2 (centres unmarked) [Example 72a]"
measured_attribute = "pIC50"
qualifying_sign = "="
value_reported = 6.25

[[record]]
compound = "COc1cc(-c2c(-c3ccncc3)nn3c(-c4ccc(N5C[C@@H]6C[C@H]5CN6)cc4)ccnc23)ccc1Cl"
measured_attribute = "pIC50"
qualifying_sign = "="
value_reported = 8.74

[[record]]
compound = "CN1C[C@@H]2C[C@H]1CN2c1ccc(-c2ccnc3c(-c4cccc5[nH]ncc45)c(-c4ccncc4)nn23)cc1"
measured_attribute = "pIC50"
qualifying_sign = "="
value_reported = 8.82

[[record]]
compound = "c1cc(-c2c(-c3ccncc3)nn3c2nccc3[C@H]2CC[C@H](N3CC4CCC(C3)O4)CC2)c2cn[nH]c2c1 (relative stereo)"
measured_attribute = "pIC50"
qualifying_sign = "="
value_reported = 8.43

[[record]]
compound = "CN1C[C@@H]2C[C@H]1CN2c1ccc(-c2ccnc3c(-c4cccc5[nH]ncc45)c(-c4ccncc4)nn23)c(F)c1F"
measured_attribute = "pIC50"
qualifying_sign = "="
value_reported = 9.22

[[record]]
compound = "CC(C)(C)OC(=O)N1C[C@@H]2C[C@H]1CN2c1ccc(-c2ccnc3c(-c4ccc(F)c5[nH]ncc45)c(-c4ccncc4)nn23)cc1"
measured_attribute = "pIC50"
qualifying_sign = "="
value_reported = 8.69

[[record]]
compound = "Clc1ccc(-c2c(-c3ccncc3)nn3ccc(-c4ccc(N5C[C@@H]6C[C@H]5CN6)cc4)nc23)c2cn[nH]c12"
measured_attribute = "pIC50"
qualifying_sign = "="
value_reported = 8.92

[[record]]
compound = "COc1cc(-c2c(-c3ccncc3)nn3c(C4CC5CCC(C4)N5)ccnc23)ccc1Cl (centres unmarked)"
measured_attribute = "pIC50"
qualifying_sign = "="
value_reported = 8.05

[[record]]
compound = "CCOC(=O)N1C2CCC1CC(c1ccnc3c(-c4ccc5cc[nH]c5c4)c(-c4ccncc4)nn13)C2 (centres unmarked)"
measured_attribute = "pIC50"
qualifying_sign = "="
value_reported = 7.44

